System: Pan T cells isolated from C57BL6 splenocytes
protocol-notes: T cell activation assay (flow cytometry, CD25/CD69 on CD8 T cells)
Format: cell-based, mouse
study-conditions: 30 μM compound; no TCR stimulation; 2 days
% CD69 within CD8+ overview

Worked cases, answers included:
smiles-repr	value-observed
CC(C)(O)CCOc1ccc2cc(O)c(N3CC(=O)NS3(=O)=O)c(F)c2c1	0.45%
COc1ccc2cc(O)c(N3CC(=O)NS3(=O)=O)c(F)c2c1	0.23%
O=C1CN(c2c(O)cc3ccc(C4=CCN(S(=O)(=O)C5CC5)C4)cc3c2F)S(=O)(=O)N1	0.24%

Please turn your attention to the following entry.
Prompt: For O=C1CN(c2c(O)cc3ccc(OC(F)F)cc3c2F)S(=O)(=O)N1 , what is its reported % CD69 within CD8+?
Response: 0.17%
